Target: MAP kinase p38 (Mus musculus, UniProt P47811+O08911+Q9WUI1+Q9Z1B7)
Test: Inhibitory activity against mouse Mitogen-activated protein kinase p38
Assay type: protein assay
Quick reference: log10 IC50 of the listed items.
Test Readout: log10 IC50 (log10 of the value in nM)

> print(dat)
                                    molecule  meas.value
 1  CC(C)N1CC2CC1CN2c1cc2c(nc1Sc1ccc(F)cc1F)CNC(=O)N2c1c(Cl)cccc1Cl (stereo not given)        0.30
 2  CC(C)(C)OC(=O)N1CCN(c2cc3c(nc2Sc2ccc(F)cc2F)CNC(=O)N3c2c(Cl)cccc2Cl)CC1        1.40
 3  O=C1NCc2nc(Sc3ccc(F)cc3F)c(N3CCOCC3)cc2N1c1c(Cl)cccc1Cl        0.30
 4  CC(C)(C)OC(=O)N1CC2CC1CN2c1cc2c(nc1Sc1ccc(F)cc1F)CNC(=O)N2c1c(Cl)cccc1Cl (stereo not given)        1.64
 5  O=C1NCc2nc(Sc3ccc(F)cc3F)c(N3CC4CC3CN4CC3CC3)cc2N1c1c(Cl)cccc1Cl (stereo not given)        0.48
 6  O=C1NCc2nc(Sc3ccc(F)cc3F)c(N3CCNCC3)cc2N1c1c(Cl)cccc1Cl        0.30
 7  CC(C)N1CCN(c2cc3c(nc2Sc2ccc(F)cc2F)CNC(=O)N3c2c(Cl)cccc2Cl)CC1        0.85
 8  O=C1NCc2nc(Sc3ccc(F)cc3F)c(N3CC4CCC3C4)cc2N1c1c(Cl)cccc1Cl (stereo not given)        0.72
 9  CN(C)CCN1CCN(c2cc3c(nc2Sc2ccc(F)cc2F)CNC(=O)N3c2c(Cl)cccc2Cl)CC1       -0.22
10  O=C1NCc2nc(Sc3ccc(F)cc3F)c(N3CC4CC3CN4C3CC3)cc2N1c1c(Cl)cccc1Cl (stereo not given)        0.48

---

Target: MAP kinase p38 (Mus musculus, UniProt P47811+O08911+Q9WUI1+Q9Z1B7)
Assay: Inhibitory activity against mouse Mitogen-activated protein kinase p38
Assay type: protein assay
Exam item: assign TRUE to entries whose IC50 is below 9 nM and FALSE to entries at or above 9 nM. Note that a value of exactly 9 nM receives FALSE.

> print(dat)
                                   compound  group.label
1  O=C1NCc2nc(Sc3ccc(F)cc3F)c(N3CCCCC3)cc2N1c1c(Cl)cccc1Cl         TRUE
2  CC1CN(c2cc3c(nc2Sc2ccc(F)cc2F)CNC(=O)N3c2c(Cl)cccc2Cl)CC(C)O1 (centres undefined)         TRUE
3  O=C1NCc2nc(Sc3ccc(F)cc3F)c(N3CCC(CCN4CCCC4)CC3)cc2N1c1c(Cl)cccc1Cl         TRUE
4  O=C1NCc2nc(Sc3ccc(F)cc3F)c(OC3CCNCC3)cc2N1c1c(Cl)cccc1Cl        FALSE
5  O=C1NCc2nc(Sc3ccc(F)cc3F)c(NC3CCNCC3)cc2N1c1c(Cl)cccc1Cl         TRUE
6  O=C1NCc2nc(Sc3ccc(F)cc3F)c(Br)cc2N1c1c(Cl)cccc1Cl        FALSE
7  O=C1NCc2nc(Sc3ccc(F)cc3F)c(N3CC4CC3CN4)cc2N1c1c(Cl)cccc1Cl (centres undefined)         TRUE
8  O=C1NCc2nc(Sc3ccc(F)cc3F)c(N3CCN(CCN4CCCC4)CC3)cc2N1c1c(Cl)cccc1Cl         TRUE
